Test system: LCK
Conditions: concentration: 1 μM, replicates: in singlicate; n = 1;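 note: KINOMEscan kinase panel screen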
experimental.readout: %Inh (%)
Just the number please, in %, no unit attached.

Fc1ccc(-c2ncn(CCCN3CCOCC3)c2-c2cccnc2)cc1 :: 20
Fc1ccc(-c2ncn(CCCN3CCOCC3)c2-c2ccccn2)cc1 :: 28

Please give the documented %Inh of "N#Cc1ccc(-c2cc(-c3c[nH]nc3-c3ccccn3)ccn2)cc1"
0

* * *

Measured %Inh, listed per entry.
Tested on: CSK
Conditions: concentration: 1 μM, replicates: in singlicate; n = 1
Just the number please, in %, no unit attached.

COc1ccc(COc2cc(-n3cnc4ccccc43)sc2C(N)=O)cc1 [GSK1024304] :: 0
CN1c2ccc(NCc3ccc(F)cc3)cc2-c2c(cnn2C)S1(=O)=O :: 0
CC(C)(C)n1cnc2c(N)ncnc21 [SKF-97359] :: 0
COc1cc2c(cc1OC[C@@H](O)CO)ncc1c3ccc(C#N)cc3[nH]c21 :: 1
Cc1cccc(-c2nc(-c3ccc(S(C)(=O)=O)cc3)sc2-c2ccncc2)c1 :: 8

State, for CSK, measured %Inh of the compound listed here: Nc1nc(-c2ccc3c(N)n[nH]c3c2)cc(N2CCCC2)n1 [GSK2227430]
0

State, for CSK, measured %Inh of the compound listed here: "CCc1ccnc(/C=C/c2n[nH]c3cc(Sc4ccccc4C(=O)NC)ccc23)c1"
12

State, for CSK, measured %Inh of the compound listed here: NCC(NC(=O)c1cc(-c2cn[nH]c2)c(-c2ccnc3[nH]ccc23)s1)c1ccccc1.O=C(O)C(F)(F)F.O=C(O)C(F)(F)F (stereo not shown) [GSK1325775]
10

State, for CSK, measured %Inh of the compound listed here: Cc1c(Cn2c(C)nn3c(=O)cc(N4CCOC(C)C4)nc23)cccc1C(F)(F)F (stereo not shown) [GSK2344444]
0

State, for CSK, measured %Inh of the compound listed here: [2H]C([2H])(c1cccc(C(F)(F)F)c1C)n1ccn2c(=O)nc(N3CCOCC3)cc12 [GSK2336394]
0

* * *

Measured %Inh, listed per entry.
System: MST3
Construct: gene STK24
Conditions: concentration: 1 μM, replicates: in singlicate; n = 1

Example entries and their recorded answers appear below.
O=C(NCCNc1ccnc(Nc2ccc(F)cc2)n1)c1cc2ccccc2s1 :: 0%
COc1cc2c(cc1OCCN1CCN(C)CC1)ncc1c3ccc(C#N)cc3[nH]c21 :: 36%
Cn1ccc2ncnc(Oc3ccc(NC(=O)Nc4ccncc4)c(Cl)c3)c21 :: 0%
CCc1ccnc(/C=C/c2n[nH]c3cc(Sc4ccccc4C(=O)NC)ccc23)c1 :: 19%
O=C(NOCC1CC1)c1ccc(F)c(F)c1Nc1ccc(I)cc1Cl :: 4%

State, for MST3, measured %Inh of the compound listed here: "COC(=O)Nc1nc2cc(Oc3ccc(NC(=O)Nc4cc(F)ccc4F)cc3)ccc2[nH]1.Cl"
6%

State, for MST3, measured %Inh of the compound listed here: COc1cc(Nc2nccc(N3CCC(NC(=O)c4cccc(NC(C)=O)c4)C3)n2)cc(OC)c1OC (stereo not shown)
0%

State, for MST3, measured %Inh of the compound listed here: "O=C(c1ccc(-c2cc(-c3c[nH]nc3-c3ccccn3)ccn2)cc1)N1CCOCC1"
0%

State, for MST3, measured %Inh of the compound listed here: "Cc1nnc(-c2ccc(C)c(-c3ccc(C(=O)Nc4ccc(NS(C)(=O)=O)cc4)cc3)c2)o1"
0%

* * *

Test system: AKT3
Settings: concentration: 1 μM, replicates: in singlicate; n = 1
Measured %Inh, listed per entry.

Please give the documented %Inh of Cc1nnc(-c2ccc3occ(-c4ccc(C(C)O)cc4)c3c2)o1 (centres unmarked)
4%

* * *

Test system: IRAK3
Conditions: concentration: 1 μM, replicates: in singlicate; n = 1
Measured %Inh, listed per entry.
Just the number please, in %, no unit attached.

Example entries and their recorded answers appear below.
Cc1nnc(-c2ccc3ncc(-c4ccc(S(C)=O)cc4)n3c2)o1 (stereo not drawn) :: 23
CN1c2ccc(NCc3ccc(F)cc3)cc2-c2c(cnn2C)S1(=O)=O :: 0
COc1ccc(Nc2nccc(N3CCC(NC(=O)Nc4cc(C)ccc4C)C3)n2)cc1 (stereo not drawn) :: 19

Please give the documented %Inh of "COC(=O)Nc1nc2cc(Oc3ccc(NC(=O)Nc4cc(F)ccc4F)cc3)ccc2[nH]1.Cl"
0

Please give the documented %Inh of "CN1c2ccc(CNc3ccc(F)cc3)cc2-c2c(cnn2C)S1(=O)=O"
0

Please give the documented %Inh of "[2H]C([2H])(c1cccc(C(F)(F)F)c1C)n1ccn2c(=O)nc(N3CCOCC3)cc12"
0

* * *

Measured %Inh, listed per entry.
Tested on: LOK
Construct: gene STK10
Details: concentration: 1 μM, replicates: in singlicate; n = 1
Just the number please, in %, no unit attached.

Please give the documented %Inh of "Cl.Nc1ncnc2occ(-c3ccc(NC(=O)Nc4cc(C(F)(F)F)ccc4F)cc3)c12"
99.9

* * *

System: HIPK2
Conditions: concentration: 1 μM, replicates: in singlicate; n = 1
experimental.readout: %Inh (%)
Just the number please, in %, no unit attached.

Example entries and their recorded answers appear below.
NS(=O)(=O)c1cccc(-c2ccc3ncc(N4CCOCC4)nc3c2)c1 [GSK1535721] :: 0
COc1ccc(CNC(=O)NC2CCN(c3ccnc(Nc4ccc(OC)cc4)n3)C2)cc1 (stereo not drawn) [GSK1379727] :: 40
COc1ccc(Nc2nccc(N3CCC(NC(=O)Nc4cccc(C(C)=O)c4)C3)n2)cc1 (stereo not drawn) [GSK1379731] :: 0
Cc1ccc(NC(=O)c2ccnc(N3CCN(C)CC3)c2)cc1-c1ccc(C(=O)NCC2CC2)cc1 [GW775604] :: 0

State, for HIPK2, measured %Inh of the compound listed here: "O=C(NOCC1CC1)c1ccc(F)c(F)c1Nc1ccc(I)cc1Cl"
0

State, for HIPK2, measured %Inh of the compound listed here: "CN1c2ccc(NCc3ccc(F)cc3)cc2-c2c(cnn2C)S1(=O)=O"
0

* * *

System: TNK1
Conditions: concentration: 1 μM, replicates: in singlicate; n = 1
experimental.readout: %Inh

Example entries and their recorded answers appear below.
Fc1ccc(-c2nn3c(OCC(F)(F)F)cccc3c2-c2ccncc2)cc1 :: 0%
O=c1cc(N2CCOCC2)nc2n(Cc3cccc(Cl)c3Cl)c(C3CC3)nn12 :: 0%
COc1ccc(Nc2nccc(N3CCC(NC(=O)Nc4cccc(C(C)=O)c4)C3)n2)cc1 (centres unmarked) :: 0%

Please give the documented %Inh of "Nc1nccc(-c2c(-c3ccc(F)cc3)ncn2C2CCN(CC(F)(F)F)CC2)n1"
0%

Please give the documented %Inh of "Cc1ccc(NC(=O)c2ccnc(N3CCN(C)CC3)c2)cc1-c1ccc(C(=O)NCC2CC2)cc1"
34%

Please give the documented %Inh of "Fc1ccc(-c2ncn(CCCN3CCOCC3)c2-c2ccccn2)cc1"
24%

Please give the documented %Inh of "Nc1nc(-c2ccc3c(N)n[nH]c3c2)cc(N2CCCC2)n1"
0%

* * *

System: ERK1
Construct: gene MAPK3
Settings: concentration: 1 μM, replicates: in singlicate; n = 1
experimental.readout: %Inh (%)
Just the number please, in %, no unit attached.

Example entries and their recorded answers appear below.
Cc1cccc(-c2nc(-c3ccc(S(C)(=O)=O)cc3)sc2-c2ccncc2)c1 :: 6
Cc1ccc(C(=O)NCC(N)=O)cc1-n1c(C)cc(OCc2ccc(F)cc2F)c(Br)c1=O :: 6
COc1ccc(Nc2nccc(N3CCC(NC(=O)Nc4cccc(C(C)=O)c4)C3)n2)cc1 (centres unmarked) :: 0

Please give the documented %Inh of "c1ccc(-c2cc(-c3c[nH]nc3-c3ccccn3)ccn2)cc1"
8

Please give the documented %Inh of "O=C(NOCC1CC1)c1ccc(F)c(F)c1Nc1ccc(I)cc1Cl"
0

Please give the documented %Inh of "Cc1cn2c(=O)cc(N3CCOCC3)nc2n1Cc1cccc(Cl)c1Cl"
0

* * *

Measured %Inh, listed per entry.
Test system: AMPK-alpha2
Construct: gene PRKAA2
Conditions: concentration: 1 μM, replicates: in singlicate; n = 1
Just the number please, in %, no unit attached.

Example entries and their recorded answers appear below.
Fc1ccc(-c2nn3c(OCC(F)(F)F)cccc3c2-c2ccncc2)cc1 [GW514784] :: 0
O=C(NCCNc1ccnc(Nc2ccc(F)cc2)n1)c1cc2ccccc2s1 [GSK1379874] :: 0
Cl.Oc1cccc(Nc2ccnc3cc(-c4ccncc4)ccc23)c1 [GW494601] :: 0
Cc1cn2c(=O)cc(N3CCOCC3)nc2n1Cc1cccc(Cl)c1Cl [GSK2334006] :: 0
Cc1ccc(C(=O)NCC(N)=O)cc1-n1c(C)cc(OCc2ccc(F)cc2F)c(Br)c1=O :: 11
NS(=O)(=O)c1cccc(-c2ccc3nccc(-c4cccc(S(N)(=O)=O)c4)c3c2)c1 [GW867253] :: 6

Please give the documented %Inh of CNc1ncnc2[nH]ncc12 [SKF-18355]
0

Please give the documented %Inh of Cc1c2ccc(N(C)c3ccnc(Nc4cccc(S(N)(=O)=O)c4)n3)cc2nn1Cc1ccccc1.Cl.Cl [GW787226]
0

Please give the documented %Inh of O=c1cc(N2CCOCC2)nc2n(Cc3cccc(C(F)(F)F)c3)ccn12 [GSK2297543]
0

Please give the documented %Inh of "CN1c2ccc(CNc3ccc(F)cc3)cc2-c2c(cnn2C)S1(=O)=O"
13

Sourced from paper PMC5540273
